System: Jurkat T cells
Assay: Lymphocyte migration on ICAM-1/SDF-1α-coated cover glasses
Assay type: cell-based, human
Conditions: tracked over 20 min, mean ± SE
ASSAY_ENDPOINT: mean cell displacement

Input: Which mean cell displacement value belongs to COC(=O)c1ccc2c(=O)n(Cc3ccc(C(=O)NC4CCCC4)cc3)c(=S)[nH]c2c1 [SMC #30] ?
Output: 41.07±4.69

Input: Which mean cell displacement value belongs to Cc1ccccc1N(CC(=O)NCc1ccccc1)C(=O)CCC(=O)Nc1nccs1 [SMC #33] ?
Output: 32.92±4.28

Input: Which mean cell displacement value belongs to CC(=O)N[C@H]1C[C@@H](c2ccc3c(c2)nnn3C)O[C@@H](c2ccc(Cl)cc2)C1 [SMC #6] ?
Output: 29.52±2.96

Input: Which mean cell displacement value belongs to CC1CCCC(C)N1C(=O)CSc1nnc(COc2cccc3cccnc23)o1 (stereo not shown) [SMC #34] ?
Output: 48.91±6

###

Target: WIP-WASp interaction (Homo sapiens, UniProt P42768, K230R/R34Q)
Construct: expressed in transfected cells
Sequence (P42768 whole entry R34Q/K230R): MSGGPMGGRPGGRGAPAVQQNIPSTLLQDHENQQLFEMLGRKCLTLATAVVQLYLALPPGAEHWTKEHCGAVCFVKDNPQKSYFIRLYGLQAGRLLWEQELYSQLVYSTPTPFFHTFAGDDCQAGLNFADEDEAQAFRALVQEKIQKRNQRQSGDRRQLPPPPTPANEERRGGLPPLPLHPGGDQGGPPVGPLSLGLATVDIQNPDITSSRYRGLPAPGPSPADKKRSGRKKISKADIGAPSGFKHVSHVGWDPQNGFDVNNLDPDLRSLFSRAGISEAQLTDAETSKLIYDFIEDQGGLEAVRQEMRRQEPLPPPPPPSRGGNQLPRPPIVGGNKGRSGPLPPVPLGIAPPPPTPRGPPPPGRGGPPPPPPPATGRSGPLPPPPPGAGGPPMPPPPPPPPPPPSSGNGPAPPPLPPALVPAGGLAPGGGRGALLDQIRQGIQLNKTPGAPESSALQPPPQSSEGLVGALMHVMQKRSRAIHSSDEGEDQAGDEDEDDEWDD
Sequence (O43516 whole entry partner): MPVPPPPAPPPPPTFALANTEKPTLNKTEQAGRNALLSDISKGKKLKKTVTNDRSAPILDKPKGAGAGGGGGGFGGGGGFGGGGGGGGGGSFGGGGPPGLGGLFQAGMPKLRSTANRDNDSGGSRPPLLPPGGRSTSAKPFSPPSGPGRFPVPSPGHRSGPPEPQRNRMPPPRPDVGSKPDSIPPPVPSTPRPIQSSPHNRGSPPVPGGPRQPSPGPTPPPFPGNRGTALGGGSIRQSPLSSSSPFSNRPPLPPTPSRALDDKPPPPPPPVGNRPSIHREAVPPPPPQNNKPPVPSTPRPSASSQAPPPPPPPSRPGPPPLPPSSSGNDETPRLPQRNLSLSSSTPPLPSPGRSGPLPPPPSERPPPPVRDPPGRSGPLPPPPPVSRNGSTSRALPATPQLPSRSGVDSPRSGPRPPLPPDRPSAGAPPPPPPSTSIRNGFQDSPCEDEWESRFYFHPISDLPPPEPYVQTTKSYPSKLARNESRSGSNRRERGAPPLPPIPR
Test: FRET analysis of WIP-WASp interaction in activated T-cells expressing CFP-WASp and YFP-WIP
Format: cell-based
Details: anti-CD3 stimulatory coverslips, fixed after 5 min; mean ± SE
Experimental: FIG. 13A: Jurkat T cells stably expressing CFP-WASp and YFP-WIP were treated with WASp-binding SMC #6, SMC #30, SMC #33, SMC #34 or control. The cells were then plated on stimulatory coverslips (coated with an anti-CD3 antibody), and fixed after 5 min. Cells were imaged by confocal microscope, and FRET efficiency was measured by the donor-sensitized acceptor emission technology (see Experimental procedures for details). […]
ASSAY_ENDPOINT: average FRET efficiency (%)
# output: bare number, implied unit %

Input: Which average FRET efficiency value belongs to CC(=O)N[C@H]1C[C@@H](c2ccc3c(c2)nnn3C)O[C@@H](c2ccc(Cl)cc2)C1 [SMC #6] ?
Output: 22.7

Input: Which average FRET efficiency value belongs to COC(=O)c1ccc2c(=O)n(Cc3ccc(C(=O)NC4CCCC4)cc3)c(=S)[nH]c2c1 [SMC #30] ?
Output: 24.4

Input: Which average FRET efficiency value belongs to Cc1ccccc1N(CC(=O)NCc1ccccc1)C(=O)CCC(=O)Nc1nccs1 [SMC #33] ?
Output: 21.4

Input: Which average FRET efficiency value belongs to CC1CCCC(C)N1C(=O)CSc1nnc(COc2cccc3cccnc23)o1 (stereo not shown) [SMC #34] ?
Output: 23.8
